Assayed target: UniProt P00533
Recorded metric: pIC50
// field semantics: pIC50 = negative decimal log of concentration (mol/L)

In the examples that follow, each entry is paired with its recorded pIC50.
C=CC(=O)Nc1cc2c(Nc3ccc(F)c(Cl)c3)ncnc2cn1 ... 9.11
C=CC(=O)Nc1ccc2ncnc(Nc3ccc(F)c(Br)c3)c2c1 ... 9.16
C=CC(=O)Nc1cc2c(Nc3ccc(F)c(Br)c3)ncnc2cn1 ... 9.14
C=CC(=O)Nc1ccc2c(Nc3cccc(Br)c3)ncnc2c1 ... 9.35
C=CC(=O)Nc1ccc2ncnc(Nc3ccc(F)c(Cl)c3)c2c1 ... 9.12

# ---- query molecule ----
### Prompt Requested read-out: pIC50. Entry: C=CC(=O)Nc1ccc2ncnc(Nc3ccc(F)c(Br)c3)c2n1
### Response 8.92

###

A short record of IC50 observed with Epidermal growth factor receptor (Homo sapiens) follows.
Sequence (P00533 whole entry): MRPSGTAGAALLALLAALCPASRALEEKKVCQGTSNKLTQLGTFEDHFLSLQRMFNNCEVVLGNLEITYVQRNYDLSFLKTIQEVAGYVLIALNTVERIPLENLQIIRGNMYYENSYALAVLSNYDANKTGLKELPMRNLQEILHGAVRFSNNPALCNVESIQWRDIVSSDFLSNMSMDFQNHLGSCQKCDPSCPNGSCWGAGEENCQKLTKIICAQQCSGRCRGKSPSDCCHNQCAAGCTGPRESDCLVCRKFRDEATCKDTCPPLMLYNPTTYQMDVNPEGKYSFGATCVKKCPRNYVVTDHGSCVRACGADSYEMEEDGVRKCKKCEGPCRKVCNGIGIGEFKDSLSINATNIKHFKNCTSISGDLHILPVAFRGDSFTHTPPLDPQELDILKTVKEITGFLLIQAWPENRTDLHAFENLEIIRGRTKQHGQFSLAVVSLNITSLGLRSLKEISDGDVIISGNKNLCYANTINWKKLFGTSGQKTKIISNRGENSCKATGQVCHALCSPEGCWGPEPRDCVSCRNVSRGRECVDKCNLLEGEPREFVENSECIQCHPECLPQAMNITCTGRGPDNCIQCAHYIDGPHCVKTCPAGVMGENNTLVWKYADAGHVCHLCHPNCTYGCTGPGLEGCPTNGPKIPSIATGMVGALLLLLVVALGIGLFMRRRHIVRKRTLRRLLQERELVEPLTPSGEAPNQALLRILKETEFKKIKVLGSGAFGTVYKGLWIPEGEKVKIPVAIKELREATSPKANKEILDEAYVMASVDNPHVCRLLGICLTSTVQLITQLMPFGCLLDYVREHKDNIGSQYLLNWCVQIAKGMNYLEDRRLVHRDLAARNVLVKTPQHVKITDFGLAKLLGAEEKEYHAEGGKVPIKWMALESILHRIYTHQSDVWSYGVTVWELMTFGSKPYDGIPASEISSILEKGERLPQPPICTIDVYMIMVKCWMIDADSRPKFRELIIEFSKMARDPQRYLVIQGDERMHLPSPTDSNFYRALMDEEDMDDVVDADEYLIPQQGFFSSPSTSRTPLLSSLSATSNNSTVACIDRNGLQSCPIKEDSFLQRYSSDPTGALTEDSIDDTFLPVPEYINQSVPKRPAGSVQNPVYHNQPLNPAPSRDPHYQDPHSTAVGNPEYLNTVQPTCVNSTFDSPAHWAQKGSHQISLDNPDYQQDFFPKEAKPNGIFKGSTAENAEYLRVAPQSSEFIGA
Return type: number; implicit unit nM.

These recorded examples may help you get a feel for the data.
C=CC(=O)Nc1ccc2ncnc(Nc3ccc(F)c(Br)c3)c2c1 ... 2.7
C=CC(=O)Nc1cc2c(Nc3ccc(F)c(Br)c3)ncnc2cn1 ... 2.1
C=CC(=O)Nc1ccc2ncnc(N3CCc4ccc(Br)cc43)c2c1 ... 9.9
C=CC(=O)Nc1ccc2ncnc(Nc3ccc(F)c(Cl)c3)c2c1 ... 3.1
C=CC(=O)Nc1ccc2ncnc(Nc3ccc(F)c(Br)c3)c2n1 ... 18

Alright, here's another compound for you.
### Prompt Return reported IC50; argument: C=CC(=O)Nc1cc2c(Nc3ccc(F)c(Cl)c3)ncnc2cn1
### Response 3.3

###

Assayed target: Receptor tyrosine-protein kinase erbB-2 (Homo sapiens, UniProt P04626)
Sequence (P04626 whole entry): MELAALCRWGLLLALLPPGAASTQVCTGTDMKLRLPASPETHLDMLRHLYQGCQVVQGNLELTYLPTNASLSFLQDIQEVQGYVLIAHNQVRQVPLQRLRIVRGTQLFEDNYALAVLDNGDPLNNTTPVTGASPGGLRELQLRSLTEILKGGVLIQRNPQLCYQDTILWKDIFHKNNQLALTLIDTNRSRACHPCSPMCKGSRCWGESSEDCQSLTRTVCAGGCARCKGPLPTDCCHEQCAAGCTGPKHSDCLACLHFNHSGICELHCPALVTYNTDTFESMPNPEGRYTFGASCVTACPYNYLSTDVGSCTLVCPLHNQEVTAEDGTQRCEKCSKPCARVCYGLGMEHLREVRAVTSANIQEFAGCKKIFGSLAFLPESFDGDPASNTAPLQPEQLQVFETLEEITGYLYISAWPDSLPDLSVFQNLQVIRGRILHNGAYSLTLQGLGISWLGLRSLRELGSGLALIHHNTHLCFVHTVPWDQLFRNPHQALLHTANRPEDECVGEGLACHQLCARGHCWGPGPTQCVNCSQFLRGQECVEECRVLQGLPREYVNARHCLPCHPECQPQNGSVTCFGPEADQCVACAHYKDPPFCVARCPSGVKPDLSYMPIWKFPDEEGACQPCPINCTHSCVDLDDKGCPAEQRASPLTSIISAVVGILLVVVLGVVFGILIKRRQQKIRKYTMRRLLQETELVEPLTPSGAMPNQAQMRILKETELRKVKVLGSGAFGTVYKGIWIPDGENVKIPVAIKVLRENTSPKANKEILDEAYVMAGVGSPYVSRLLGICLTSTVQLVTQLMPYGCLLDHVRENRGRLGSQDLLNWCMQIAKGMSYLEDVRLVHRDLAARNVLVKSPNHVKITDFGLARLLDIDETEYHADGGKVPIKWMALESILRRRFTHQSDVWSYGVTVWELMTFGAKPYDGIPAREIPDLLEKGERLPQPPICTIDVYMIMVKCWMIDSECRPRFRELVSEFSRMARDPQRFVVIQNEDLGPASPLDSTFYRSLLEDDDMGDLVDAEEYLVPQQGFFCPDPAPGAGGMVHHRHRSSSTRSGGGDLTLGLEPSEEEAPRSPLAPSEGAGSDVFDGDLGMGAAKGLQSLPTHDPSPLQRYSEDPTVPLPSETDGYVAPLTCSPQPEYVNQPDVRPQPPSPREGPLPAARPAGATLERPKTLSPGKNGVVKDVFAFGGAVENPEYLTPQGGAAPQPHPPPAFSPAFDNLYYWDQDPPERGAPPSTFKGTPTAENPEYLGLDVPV
Method: Inhibition of heregulin-stimulated autophosphorylation of ERBB2 receptor kinase in MDA-MB-453 cells.
Format: cell-based
pIC50: −log10 of the molar value.
Quick rule: pIC50 of at least 8 means criterion met, below that means criterion not met.

Worked examples, 2 molecules total:
C=CC(=O)Nc1ccc2ncnc(Nc3ccc(F)c(Br)c3)c2n1 ... criterion not met
C=CC(=O)Nc1cc2c(Nc3ccc(F)c(Br)c3)ncnc2cn1 ... criterion met

### Prompt Record C=CC(=O)Nc1ccc2ncnc(Nc3cccc(Br)c3)c2c1 ; criterion: pIC50 no lower than 8. Met?
### Response criterion met

### Prompt Same lookup for C=CC(=O)Nc1ccc2c(Nc3cccc(Br)c3)ncnc2c1 , please.
### Response criterion not met

### Prompt Now the molecule C=CC(=O)Nc1cc2c(Nc3cccc(Br)c3)ncnc2cn1
### Response criterion met

###

Some compounds, each annotated with its measured IC50.
Assayed target: Receptor tyrosine-protein kinase erbB-2 (Homo sapiens)
Method: Inhibition of heregulin-stimulated autophosphorylation of ERBB2 receptor kinase in MDA-MB-453 cells.
Assay type: cell-based
Number in nM, nothing else.

C=CC(=O)Nc1ccc2ncnc(Nc3ccc(F)c(Cl)c3)c2c1 ... 4.3

### Prompt Dear colleague, I am looking for the recorded IC50 of the following compound: C=CC(=O)Nc1ccc2ncnc(Nc3ccc(F)c(Cl)c3)c2n1
### Response 12

### Prompt Cool, now C=CC(=O)Nc1ccc2ncnc(Nc3cccc(C)c3)c2c1
### Response 22

### Prompt Do the same for C=CC(=O)Nc1cc2c(Nc3ccc(F)c(Cl)c3)ncnc2cn1 please
### Response 3

### Prompt Continue with C=CC(=O)Nc1ccc2ncnc(Nc3ccc(Oc4ccccc4)cc3)c2c1
### Response 8.6

###

Assayed target: Receptor tyrosine-protein kinase erbB-2 (Homo sapiens)
Method: Inhibition of heregulin-stimulated autophosphorylation of erbB2 in MDA-MB-453 cells.
Format: cell-based
Recorded metric: IC50 (nM)
Please reply with the bare figure in nM and do not write the unit itself.

### Prompt Report IC50 for C=CC(=O)Nc1cc2c(Nc3cccc(C)c3)ncnc2cn1 please.
### Response 8.8
